pIC50: −log10 of the molar value. Bridge positions count the residues as written; N and C are the ends. Square brackets hold non-standard residues; d marks the D form. Peptide text beside a SMILES is read from it. Phe(4-CH2NHiPr) = CC(C)NCc1ccc(C[C@H](N)C(=O)O)cc1
# collection of pIC50 values tested on Somatostatin receptor type 4 (Homo sapiens, UniProt P31391)
# Sequence (P31391 whole entry): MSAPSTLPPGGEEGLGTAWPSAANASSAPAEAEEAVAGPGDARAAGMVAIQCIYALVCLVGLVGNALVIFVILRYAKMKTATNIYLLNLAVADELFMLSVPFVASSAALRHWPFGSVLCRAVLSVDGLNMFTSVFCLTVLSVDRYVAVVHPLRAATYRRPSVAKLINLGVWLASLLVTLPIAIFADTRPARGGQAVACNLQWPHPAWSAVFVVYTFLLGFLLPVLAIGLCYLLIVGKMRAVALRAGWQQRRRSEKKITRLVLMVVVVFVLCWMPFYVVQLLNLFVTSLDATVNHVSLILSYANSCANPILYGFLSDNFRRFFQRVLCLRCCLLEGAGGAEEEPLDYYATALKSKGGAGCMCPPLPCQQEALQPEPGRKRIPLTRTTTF

CC(C)NCc1ccc(C[C@@H]2NC(=O)[C@@H](Cc3ccc4ccccc4c3)NC(=O)[C@H](Cc3ccccc3)NC(=O)[C@H](Cc3ccccc3)NC(=O)[C@H](CCCCN)NC(=O)[C@@H](NC(=O)[C@@H](N)Cc3ccc(O)cc3)CSSC[C@@H](C(=O)O)NC(=O)[C@H](CO)NC(=O)[C@H]([C@@H](C)O)NC(=O)[C@H](Cc3ccccc3)NC(=O)[C@H]([C@@H](C)O)NC2=O)cc1 | < 6.00

(Q) Give the measured pIC50 of CC(C)NCc1ccc(C[C@@H]2NC(=O)[C@@H](Cc3c[nH]c4ccccc34)NC(=O)[C@H](Cc3ccccc3)NC(=O)[C@H](Cc3ccccc3)NC(=O)[C@H](CC(N)=O)NC(=O)[C@H](CCCCN)NC(=O)[C@@H](N)CSSC[C@@H](C(=O)O)NC(=O)[C@H](CO)NC(=O)[C@H]([C@@H](C)O)NC(=O)[C@H](Cc3ccccc3)NC(=O)[C@H]([C@@H](C)O)NC2=O)cc1 (H-CKNFF[dW][Phe(4-CH2NHiPr)]TFTSC-OH; disulfide 1-12) .
(A) < 5.00

(Q) CC(C)NCc1ccc(C[C@@H]2NC(=O)[C@@H](Cc3ccc4ccccc4c3)NC(=O)[C@H](Cc3ccccc3)NC(=O)[C@H](Cc3ccccc3)NC(=O)[C@H](CCCCN)NC(=O)[C@H](NC(=O)CCc3ccc(O)cc3)CSSC[C@H](C(=O)O)NC(=O)[C@H](CO)NC(=O)[C@H]([C@@H](C)O)NC(=O)[C@H](Cc3ccccc3)NC(=O)[C@H]([C@@H](C)O)NC2=O)cc1 , same question.
(A) < 6.00

---

measurement-target: Somatostatin receptor type 5 (Homo sapiens, UniProt P35346)
Sequence (P35346 whole entry): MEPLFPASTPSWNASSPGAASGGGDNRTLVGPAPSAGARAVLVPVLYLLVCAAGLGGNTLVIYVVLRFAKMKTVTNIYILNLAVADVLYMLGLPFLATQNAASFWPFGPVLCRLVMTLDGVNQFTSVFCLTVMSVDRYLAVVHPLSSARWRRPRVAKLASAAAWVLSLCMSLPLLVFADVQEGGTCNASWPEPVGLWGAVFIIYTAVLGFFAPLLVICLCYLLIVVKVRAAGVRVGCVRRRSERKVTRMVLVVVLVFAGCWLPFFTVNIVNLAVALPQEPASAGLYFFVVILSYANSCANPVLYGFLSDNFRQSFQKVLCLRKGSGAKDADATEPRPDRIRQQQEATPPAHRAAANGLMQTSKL
Bridge positions count the residues as written; N and C are the ends. Square brackets hold non-standard residues; d marks the D form. Peptide text beside a SMILES is read from it. Phe(4-CH2NHiPr) = CC(C)NCc1ccc(C[C@H](N)C(=O)O)cc1
Recorded IC50, one value per entry.

Check out these entries, answers already filled in.
CC(C)NCc1ccc(C[C@@H]2NC(=O)[C@@H](Cc3c[nH]c4ccccc34)NC(=O)[C@H](Cc3ccccc3)NC(=O)[C@H](Cc3ccccc3)NC(=O)[C@@H](N)CSSC[C@@H](C(=O)O)NC(=O)[C@H](Cc3ccccc3)NC(=O)[C@H]([C@@H](C)O)NC2=O)cc1 (H-CFF[dW][Phe(4-CH2NHiPr)]TFC-OH; disulfide 1-8) | > 10 µM
CC(C)NCc1ccc(C[C@@H]2NC(=O)[C@@H](Cc3c[nH]c4ccccc34)NC(=O)[C@H](Cc3ccccc3)NC(=O)[C@H](Cc3ccccc3)NC(=O)[C@H](CCCCN)NC(=O)[C@@H](N)CSSC[C@@H](C(=O)O)NC(=O)[C@H](CO)NC(=O)[C@H]([C@@H](C)O)NC(=O)[C@H](Cc3ccccc3)NC(=O)[C@H]([C@@H](C)O)NC2=O)cc1 (H-CKFF[dW][Phe(4-CH2NHiPr)]TFTSC-OH; disulfide 1-11) | > 10 µM

(Q) Give the measured IC50 of CNCc1ccc(C[C@@H]2NC(=O)[C@@H](Cc3ccc4ccccc4c3)NC(=O)[C@H](Cc3ccccc3)NC(=O)[C@H](Cc3ccccc3)NC(=O)[C@H](CCCCN)NC(=O)[C@@H](N)CSSC[C@@H](C(=O)O)NC(=O)[C@H](CO)NC(=O)[C@H]([C@@H](C)O)NC(=O)[C@H](Cc3ccccc3)NC(=O)[C@H]([C@@H](C)O)NC2=O)cc1 .
(A) > 1 µM

---

# collection of IC50 values tested on Somatostatin receptor type 2 (Homo sapiens)
# Sequence (P30874 whole entry): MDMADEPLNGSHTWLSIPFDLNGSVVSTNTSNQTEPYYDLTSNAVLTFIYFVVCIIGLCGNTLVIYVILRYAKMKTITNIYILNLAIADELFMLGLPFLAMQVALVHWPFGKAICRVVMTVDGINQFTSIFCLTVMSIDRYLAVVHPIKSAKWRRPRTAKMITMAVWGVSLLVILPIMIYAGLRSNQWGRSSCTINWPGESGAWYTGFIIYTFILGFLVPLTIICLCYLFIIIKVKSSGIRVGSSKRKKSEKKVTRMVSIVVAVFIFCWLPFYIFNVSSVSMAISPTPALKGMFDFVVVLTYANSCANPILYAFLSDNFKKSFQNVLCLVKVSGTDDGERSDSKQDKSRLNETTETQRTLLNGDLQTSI
Numbered stars: 1 amine (or outer) side, 2 acyl side, 3 side chain; on linkers, the order of the positions; unused ones are H or OH. Bridge positions count the residues as written; N and C are the ends. Square brackets hold non-standard residues; d marks the D form. Peptide text beside a SMILES is read from it. X1 = CC(C)CNCc1ccc(C[C@H](N[*:1])C(=O)[*:2])cc1; Phe(4-CH2NH2) = NCc1ccc(C[C@H](N)C(=O)O)cc1

Check out these entries, answers already filled in.
C[C@@H](O)[C@@H]1NC(=O)[C@H](Cc2ccccc2)NC(=O)[C@H]([C@@H](C)O)NC(=O)[C@H](Cc2ccc(CN)cc2)NC(=O)[C@@H](Cc2c[nH]c3ccccc23)NC(=O)[C@H](Cc2ccccc2)NC(=O)[C@H](Cc2ccccc2)NC(=O)[C@H](CCCCN)NC(=O)[C@@H](N)CSSC[C@@H](C(=O)O)NC(=O)[C@H](CO)NC1=O (H-CKFF[dW][Phe(4-CH2NH2)]TFTSC-OH; disulfide 1-11) | 213 nM
C[C@H](N)C(=O)NCC(=O)N[C@H]1CSSC[C@@H](C(=O)O)NC(=O)[C@H](CO)NC(=O)[C@H]([C@@H](C)O)NC(=O)[C@H](Cc2ccccc2)NC(=O)[C@H]([C@@H](C)O)NC(=O)[C@H](CCCCN)NC(=O)[C@@H](Cc2c[nH]c3ccccc23)NC(=O)[C@H](Cc2ccccc2)NC(=O)[C@H](Cc2ccccc2)NC(=O)[C@H](CCCCN)NC1=O (H-AGCKFF[dW]KTFTSC-OH; disulfide 3-13) | 42.5 nM

(Q) Give the measured IC50 of CC(C)CN(Cc1ccc(C[C@@H]2NC(=O)[C@@H](Cc3c[nH]c4ccccc34)NC(=O)[C@H](Cc3ccccc3)NC(=O)[C@H](Cc3ccccc3)NC(=O)[C@H](CCCCN)NC(=O)[C@@H](N)CSSC[C@@H](C(=O)O)NC(=O)[C@H](CO)NC(=O)[C@H]([C@@H](C)O)NC(=O)[C@H](Cc3ccccc3)NC(=O)[C@H]([C@@H](C)O)NC2=O)cc1)CC(C)C .
(A) > 10000 nM

(Q) CC(C)CNCc1ccc(C[C@@H]2NC(=O)[C@@H](Cc3c[nH]c4ccccc34)NC(=O)[C@H](Cc3ccccc3)NC(=O)[C@H](Cc3ccccc3)NC(=O)[C@H](CCCCN)NC(=O)[C@@H](N)CSSC[C@@H](C(=O)O)NC(=O)[C@H](CO)NC(=O)[C@H]([C@@H](C)O)NC(=O)[C@H](Cc3ccccc3)NC(=O)[C@H]([C@@H](C)O)NC2=O)cc1 (H-CKFF[dW][X1]TFTSC-OH; disulfide 1-11) , same question.
(A) > 1000 nM

---

Bridge positions count the residues as written; N and C are the ends. Square brackets hold non-standard residues; d marks the D form. Peptide text beside a SMILES is read from it. Phe(4-NO2) = N[C@@H](Cc1ccc([N+](=O)[O-])cc1)C(=O)O; Phe(4-CH2NHiPr) = CC(C)NCc1ccc(C[C@H](N)C(=O)O)cc1; d2Nal = N[C@H](Cc1ccc2ccccc2c1)C(=O)O
# collection of IC50 values tested on UniProt:P31391

C[C@@H](O)[C@@H]1NC(=O)[C@H](Cc2ccccc2)NC(=O)[C@H]([C@@H](C)O)NC(=O)[C@H](Cc2ccc(CN)cc2)NC(=O)[C@@H](Cc2ccc3ccccc3c2)NC(=O)[C@H](Cc2ccccc2)NC(=O)[C@H](Cc2ccccc2)NC(=O)[C@H](CCCCN)NC(=O)[C@@H](N)CSSC[C@@H](C(=O)O)NC(=O)[C@H](CO)NC1=O | > 1000 nM
CC(C)CN(Cc1ccc(C[C@@H]2NC(=O)[C@@H](Cc3c[nH]c4ccccc34)NC(=O)[C@H](Cc3ccccc3)NC(=O)[C@H](Cc3ccccc3)NC(=O)[C@H](CCCCN)NC(=O)[C@@H](N)CSSC[C@@H](C(=O)O)NC(=O)[C@H](CO)NC(=O)[C@H]([C@@H](C)O)NC(=O)[C@H](Cc3ccccc3)NC(=O)[C@H]([C@@H](C)O)NC2=O)cc1)CC(C)C | > 10000 nM
CC(C)NCc1ccc(C[C@@H]2NC(=O)[C@@H](Cc3c[nH]c4ccccc34)NC(=O)[C@H](Cc3ccccc3)NC(=O)[C@H](Cc3ccccc3)NC(=O)[C@@H](NC(=O)[C@@H](N)Cc3ccc(O)cc3)CSSC[C@@H](C(=O)O)NC(=O)[C@H]([C@@H](C)O)NC(=O)[C@H](Cc3ccccc3)NC(=O)[C@H]([C@@H](C)O)NC2=O)cc1 | > 1000 nM
CC(C)NCc1ccc(C[C@@H]2NC(=O)[C@@H](Cc3ccc4ccccc4c3)NC(=O)[C@H](Cc3ccc([N+](=O)[O-])cc3)NC(=O)[C@H](Cc3ccccc3)NC(=O)[C@H](CCCCN)NC(=O)[C@@H](N)CSSC[C@@H](C(=O)O)NC(=O)[C@H](CO)NC(=O)[C@H]([C@@H](C)O)NC(=O)[C@H](Cc3ccccc3)NC(=O)[C@H]([C@@H](C)O)NC2=O)cc1 (H-CKF[Phe(4-NO2)][d2Nal][Phe(4-CH2NHiPr)]TFTSC-OH; disulfide 1-11) | > 1000 nM
C[C@H](N)C(=O)NCC(=O)N[C@H]1CSSC[C@@H](C(=O)O)NC(=O)[C@H](CO)NC(=O)[C@H]([C@@H](C)O)NC(=O)[C@H](Cc2ccccc2)NC(=O)[C@H]([C@@H](C)O)NC(=O)[C@H](CCCCN)NC(=O)[C@@H](Cc2c[nH]c3ccccc23)NC(=O)[C@H](Cc2ccccc2)NC(=O)[C@H](Cc2ccccc2)NC(=O)[C@H](CCCCN)NC1=O (H-AGCKFF[dW]KTFTSC-OH; disulfide 3-13) | 1.7 nM

Now, please, on to the next molecule.
(Q) Give the measured IC50 of CC(C)NCc1ccc(C[C@@H]2NC(=O)[C@@H](Cc3c[nH]c4ccccc34)NC(=O)[C@H](Cc3ccccc3)NC(=O)[C@H](Cc3ccccc3)NC(=O)[C@H](CCCCN)NC(=O)[C@@H](N)CSSC[C@@H](C(=O)O)NC(=O)[C@@H](CO)NC(=O)[C@H]([C@@H](C)O)NC(=O)[C@H](Cc3ccccc3)NC(=O)[C@H]([C@@H](C)O)NC2=O)cc1 (H-CKFF[dW][Phe(4-CH2NHiPr)]TFT[dS]C-OH; disulfide 1-11) .
(A) > 1000 nM
